- TARGET_UNDER_TEST: Amine oxidase [flavin-containing] B (Homo sapiens, UniProt P27338)
- Sequence (P27338 whole entry): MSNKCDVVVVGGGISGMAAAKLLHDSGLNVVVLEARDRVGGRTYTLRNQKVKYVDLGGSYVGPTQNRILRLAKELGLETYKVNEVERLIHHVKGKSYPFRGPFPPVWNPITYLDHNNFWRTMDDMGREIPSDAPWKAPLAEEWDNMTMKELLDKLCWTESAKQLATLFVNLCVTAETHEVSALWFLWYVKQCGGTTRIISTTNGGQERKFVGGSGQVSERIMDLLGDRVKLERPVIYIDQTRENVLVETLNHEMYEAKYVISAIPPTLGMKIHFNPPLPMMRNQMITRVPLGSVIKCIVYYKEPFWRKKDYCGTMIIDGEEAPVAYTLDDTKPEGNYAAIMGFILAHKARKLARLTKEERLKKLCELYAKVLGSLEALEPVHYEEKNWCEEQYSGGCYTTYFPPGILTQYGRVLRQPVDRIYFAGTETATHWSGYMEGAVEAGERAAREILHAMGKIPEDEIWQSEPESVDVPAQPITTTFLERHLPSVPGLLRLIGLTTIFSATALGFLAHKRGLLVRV
- ASSAY_COMMENT: Competitive inhibition of recombinant human MAO-B using kynuramine as substrate after 20 mins by Lineweaver-Burk plot analysis
VALUE_TYPE: Ki (µM)
Answers are plain numbers, in µM.

[Q] Any idea what its Ki is? The compound is O=c1[nH]c(SCc2cccc(I)c2)nc2ccccc12
[A] 0.068

* * *

- Species on record: Homo sapiens
- ASSAY_COMMENT: Selectivity index, ratio of IC50 for recombinant human MAO-A by IC50 for recombinant human MAO-B
I'd be grateful if you could share measured Ratio IC50 for these entries.

{"columns": ["SMILES_DATA", "Ratio IC50"],
 "data": [
  ["O=c1[nH]c(SCc2ccccc2)nc2ccccc12", "> 33"],
  ["O=C(CSc1nc(O)c2ccccc2n1)c1ccccc1", "> 3.1"],
  ["O=c1[nH]c(SCCCc2ccccc2)nc2ccccc12", "> 17"],
  ["O=c1[nH]c(SCc2ccc(C(F)(F)F)cc2)nc2ccccc12", "> 143"]
]}

Please state, for each entry, its recorded Ratio IC50.
1. Oc1nc(SCc2cccc(Cl)c2)nc2ccccc12
2. Oc1nc(SCc2ccc(Cl)cc2)nc2ccccc12
3. O=c1[nH]c(SCc2ccc(Br)cc2)nc2ccccc12
4. Oc1nc(SCCOc2ccccc2)nc2ccccc12
5. O=c1[nH]c(SCc2ccc(F)cc2)nc2ccccc12
6. Oc1nc(SCc2cccc(F)c2)nc2ccccc12
7. O=c1[nH]c(SCc2cccc(Br)c2)nc2ccccc12
8. O=c1[nH]c(SCc2cccc(I)c2)nc2ccccc12

[A]
1: > 435; 2: > 207; 3: > 128; 4: > 81; 5: > 177; 6: > 40; 7: > 481; 8: > 704

* * *

- TARGET_UNDER_TEST: Amine oxidase [flavin-containing] B (Homo sapiens, UniProt P27338)
- ASSAY_COMMENT: Inhibition of recombinant human MAO-B using kynuramine as substrate after 20 mins by fluorescence spectrophotometric analysis
Values of IC50 strictly less than 600 nM map to YES, and values of at least 600 nM map to NO.

Example results:
{"columns": ["SMILES_DATA", "CLASSIFICATION"],
 "data": [
  ["O=c1[nH]c(SCc2ccc(Br)cc2)nc2ccccc12", "NO"],
  ["Oc1nc(SCc2ccc(Cl)cc2)nc2ccccc12", "YES"],
  ["O=C(CSc1nc(O)c2ccccc2n1)c1ccccc1", "NO"],
  ["Oc1nc(SCCOc2ccccc2)nc2ccccc12", "NO"],
  ["O=c1[nH]c(SCc2ccc(F)cc2)nc2ccccc12", "YES"]
]}

Let us examine a further case.
[Q] is_below(IC50, 600 nM) for O=c1[nH]c(SCc2ccccc2)nc2ccccc12 ?
[A] NO

* * *

- TARGET_UNDER_TEST: Amine oxidase [flavin-containing] B (Homo sapiens)
- ASSAY_COMMENT: Inhibition of recombinant human MAO-B using kynuramine as substrate after 20 mins by fluorescence spectrophotometric analysis
VALUE_TYPE: IC50 (nM)
One number for each entry, in nM.

Examples with their reported IC50 follow.
{"columns": ["SMILES_DATA", "VALUE_TYPE", "RECORDED_MEASUREMENT"],
 "data": [
  ["Oc1nc(SCc2cccc(F)c2)nc2ccccc12", "IC50", 2500],
  ["O=c1[nH]c(SCc2cccc(Br)c2)nc2ccccc12", "IC50", 208],
  ["O=c1[nH]c(SCCCc2ccccc2)nc2ccccc12", "IC50", 5990],
  ["O=c1[nH]c(SCc2ccc(C(F)(F)F)cc2)nc2ccccc12", "IC50", 700]
]}

// each listed molecule needs a value for IC50
1. Oc1nc(SCc2cccc(Cl)c2)nc2ccccc12
2. O=c1[nH]c(SCc2cccc(I)c2)nc2ccccc12

[A]
1: 230; 2: 142

FYI, the data here is from ChEMBL document CHEMBL4270656.
